All values here come from PubChem BioAssay AID1159580.

- measurement.notes: chemical genetic growth profiling, strain panel (AID 1159580);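 note: tested at 20 µM; growth read once vehicle control cultures reached saturation at 30 °C; 1 = growth at the plate median or of vehicle wells; lower values mean less growth of the strain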
- stated.conditions: S. cerevisiae deletion strains, growth OD, locus YCR088W, strain abp1
Hit rate of the full screen: of about 5,500 compounds, about 2,000 (36%) were called active. Another 18% or so got no clear call; they are omitted. Cut-off read from the data, not from the text of the source: active = normalized growth mostly below about 0.91 (no sharp cut-off); inconclusive = no clear call, values can overlap the other calls; inactive = mostly above about 0.92. Some of the results follow.
Can you answer with just one of these options? 1 (active), 0 (inactive)

Solved cases below.
{"columns": ["molecule", "label"],
 "data": [
  ["COc1ccc(CCN2CCC(Nc3nc4ccccc4n3Cc3ccc(F)cc3)CC2)cc1", 0],
  ["Cc1cccc(C)c1NC1=NCCCS1", 0],
  ["C=CC(N)CCC(=O)O (centres undefined)", 0],
  ["CC(=O)N[C@@H](CS)C(=O)O", 0]
]}

Could you check what this test reported for CC(C)NNC(=O)c1ccncc1 ?
0

Do the same for CC1(C)NC(=O)N(c2ccc([N+](=O)[O-])c(C(F)(F)F)c2)C1=O please
0

Item: C=C1CCC2C(CC2(C)C)C(=C)CC/C1=N\O (centres undefined)
0

How about O=C1C=C2C=C[C@@H]3C[C@@]2(O1)[C@H]1CCCCN31 ?
0

Then CC1C[C@H]2CC(=O)[C@H]3CCCN4CCC[C@H]2[C@]34C1 (some centres undefined) ?
0

Repeat for the following molecule: COc1ccc(-c2coc3cc(OC)cc(OC)c3c2=O)cc1
0

Consider next the molecule O=c1cc[nH]c(=S)[nH]1 in the same way.
0
